test system: Vero E6 cells; test: Vero E6 loss of cellular DNA (PI FACS); assay type: cell-based, African Green monkey; settings: Chlorocebus sabaeus, Vero C1008, 72 h, read-out: IP50 for loss of cellular DNA
QUANTITY_KIND: IC50 (µM)
Report only the number, with the unit µM understood.

Asked: // returns reported IC50 for input C1=Nc2ccccc2/C1=C/NNc1nc(Nc2ccccc2)nc(N2CCOCC2)n1
Given back: 60

* * *

test system: Vero E6 cells; assay: Vero E6 cell death, annexin-V / propidium iodide FACS; assay type: cell-based, African Green monkey; conditions: Chlorocebus sabaeus, Vero C1008, 72 h; 3 days, annexin-V and propidium iodide staining; read-out: IC50 Vero E6 cell death (fraction of live cells)
QUANTITY_KIND: pIC50
pIC50 (log units): -log10 of the concentration in mol/L.

Asked: // returns reported pIC50 for input C1=Nc2ccccc2/C1=C/NNc1nc(Nc2ccccc2)nc(N2CCOCC2)n1 [WX8]
Given back: 4.15

* * *

tested on: Vero E6 cells; experiment: Vero E6 cell proliferation (attached cell count); format: cell-based, African Green monkey; settings: Chlorocebus sabaeus, Vero C1008, 72 h; cultured for 3 days
QUANTITY_KIND: IC50 (nM)
Report only the number, with the unit nM understood.

Asked: // returns reported IC50 for input C1=Nc2ccccc2/C1=C/NNc1nc(Nc2ccccc2)nc(N2CCOCC2)n1
Given back: 400

* * *

assay: in vitro; details: African green monkey
QUANTITY_KIND: CC50 (µM)
Report only the number, with the unit µM understood.

Asked: // returns reported CC50 for input Cc1cccc(/C=N/Nc2cc(N3CCOCC3)nc(OCCc3ccccn3)n2)c1 [Apilimod, reference compound]
Given back: 33

Asked: // returns reported CC50 for input C(=N\Nc1cc(N2CCOCC2)nc(N2CCOCC2)n1)/c1ccccc1 [WWL]
Given back: 40.3

Asked: // returns reported CC50 for input C1=Nc2ccccc2/C1=C/NNc1nc(Nc2ccccc2)nc(N2CCOCC2)n1 [WX8]
Given back: 42.3

Asked: // returns reported CC50 for input Cc1cccc(/C=N/Nc2cc(N3CCOCC3)nc(N3CCOCC3)n2)c1 [NDF]
Given back: 26.3

* * *

QUANTITY_KIND: CC50/IC50
// print number alone

Asked: Identify the measured CC50/IC50 of Cc1cccc(/C=N/Nc2cc(N3CCOCC3)nc(N3CCOCC3)n2)c1 for SARS-CoV-2.
Given back: 52

Asked: Identify the measured CC50/IC50 of C(=N\Nc1cc(N2CCOCC2)nc(N2CCOCC2)n1)/c1ccccc1 for SARS-CoV-2.
Given back: 16

Asked: Identify the measured CC50/IC50 of C1=Nc2ccccc2/C1=C/NNc1nc(Nc2ccccc2)nc(N2CCOCC2)n1 for SARS-CoV-2.
Given back: 245

* * *

So I've got a bunch of molecules here, and I need their Accumulate Vacuoles EC values.
system: U2OS osteosarcoma cells; assay: Induction of vacuoles (enlarged lysosomes); type: cell-based; conditions: within 4 hours
Report only the number, with the unit µM understood.

Asked: // returns reported Accumulate Vacuoles EC for input C(=N\Nc1cc(N2CCOCC2)nc(N2CCOCC2)n1)/c1ccccc1
Given back: 0.2

Asked: // returns reported Accumulate Vacuoles EC for input Fc1ccc(Nc2nc(N3CCOCC3)nc(N3CCOCC3)n2)cc1Cl
Given back: 4

Asked: // returns reported Accumulate Vacuoles EC for input C1=Nc2ccccc2/C1=C/NNc1nc(Nc2ccccc2)nc(N2CCOCC2)n1
Given back: 0.01

Asked: // returns reported Accumulate Vacuoles EC for input Cc1cccc(/C=N/Nc2cc(N3CCOCC3)nc(N3CCOCC3)n2)c1
Given back: 0.1

Asked: // returns reported Accumulate Vacuoles EC for input CCc1ccc(Nc2nc(N3CCOCC3)nc(N3CCOCC3)n2)cc1
Given back: 2
